- Tested on: DeltatarO mutant
- experiment_description: S. aureus survival, RN4220 and DeltatarO strains – OD600, teichoic acid synthesis inhibitors, primary screen (AID 463173)
- conditions: S. aureus RN4220 wild type/DeltatarO growth, OD600, 18 h, hits give low values, screened at 18.75 µg/mL (by protocol)
The campaign covered roughly 52,000 compounds. About 4,300 (8.3%) were called active. The list comes from a sample in which actives are over-represented; it also holds close analogues and randomly drawn compounds.
Rule for this label: true (1) means survival is less than 80%; false (0) means survival is at least 80%.

compound | system_tested | group_label
COC(=O)CNC(=O)Nc1cc(C(=O)NCc2ccc(C)cc2)ccc1N1CCCC1 | DeltatarO mutant | true (1)
Cc1cc(NC(c2nnc(-c3ccccc3)o2)c2ccccc2F)ccc1Br (centres undefined) | DeltatarO mutant | true (1)
COc1ccc(-c2c3c(=O)n(C)c(=O)n(C)c3c3n2-c2ccccc2NC3c2ccccc2OC)cc1 (centres undefined) | DeltatarO mutant | true (1)
CC(C)c1ccc(NC(c2nnc(-c3ccccc3)o2)c2ccc(F)cc2Cl)cc1 (centres undefined) | DeltatarO mutant | false (0)
COc1ccccc1C1Nc2ccccc2-n2c(-c3ccccc3)c3c(=O)n(C)c(=O)n(C)c3c21 (centres undefined) | DeltatarO mutant | true (1)
COc1ccc(C2=C(C(C)=O)Sc3nnc(-c4ccccc4)n3N2C(C)=O)cc1 | DeltatarO mutant | false (0)
Cn1c(=O)c2c(-c3ccccc3)n3c(c2n(C)c1=O)C(c1ccco1)Nc1ccccc1-3 (centres undefined) | DeltatarO mutant | true (1)
COc1ccc(-c2c3c(=O)n(C)c(=O)n(C)c3c3n2-c2ccccc2NC3c2ccc(O)cc2O)cc1 (centres undefined) | DeltatarO mutant | true (1)

----------
- System: DeltatarO mutant
- experiment_description: S. aureus survival, RN4220 and DeltatarO strains – OD600, teichoic acid synthesis inhibitors, primary screen (AID 463173)
- conditions: S. aureus RN4220 wild type/DeltatarO growth, OD600, 18 h, hits give low values, screened at 18.75 µg/mL (by protocol)
About 4,300 (8.3%) of roughly 52,000 compounds were called active. The list comes from a sample in which actives are over-represented; it also holds close analogues and randomly drawn compounds.
So basically, the class depends on measured survival, and the ranges are one = under 70%, two = from 70% up to 90%, three = 90% and over

molecule | group_label
CCOc1cc(-c2nc(-c3ccc(-c4ccc(OC)cc4)nc3OC)no2)cc(OCC)c1OCC | two
O=C(O)COCC(=O)Nc1ccc2c(c1)CCC2 | three
COc1ccc(-c2ccc(-c3noc(-c4cc(OC)cc(OC)c4)n3)c(OC)n2)cc1 | one
COc1nc(C)ccc1-c1noc(-c2ccccc2)n1 | three
Cc1cc(C)n(C(C)CC(=O)Nc2cccc(C(F)(F)F)c2)n1 (stereo unspecified) | two
CCOc1cc(-c2nc(-c3ccc(-c4ccccc4)nc3OCC)no2)cc(OCC)c1OCC | one
CCOc1ccccc1-c1nc(-c2ccc(-c3ccccc3)nc2OCC)no1 | one
COc1ccccc1N1CCN(C(=O)Cn2ncc3ccsc3c2=O)CC1 | three

----------
# key: entry, value: survival
- System: DeltatarO mutant
- experiment_description: S. aureus survival, RN4220 and DeltatarO strains – OD600, teichoic acid synthesis inhibitors, primary screen (AID 463173)
- conditions: S. aureus RN4220 wild type/DeltatarO growth, OD600, 18 h, hits give low values, screened at 18.75 µg/mL (by protocol)
Hit rate of the full screen: of about 52,000 compounds, about 4,300 (8.3%) were called active. This is one part of a sample in which actives are shown more often than they occur.
measured_quantity: survival (%)

compound | measured_quantity | numeric_value
Fc1ccc(Br)cc1C1C=C(c2ccc(Br)cc2)Nc2nnnn21 (stereo unspecified) | survival | 91
N#C/C(=C\c1ccc(-c2ccccc2)o1)C(=O)Nc1ccccc1 | survival | 90
Cc1cccc(C2C=C(c3ccc(C)c(C)c3)Nc3nnnn32)c1 (stereo unspecified) | survival | 6
COc1ccc(C(=O)CN2CCC(N3CCCCC3)CC2)cc1 | survival | 92
CCOc1ccc(NC(=O)c2cnn3c2NC(c2cccc(OC)c2)=CC3c2ccccc2)cc1 (stereo unspecified) | survival | 49
CN(C)c1ccc(C2C=C(c3ccccc3)Nc3nnnn32)cc1 (stereo unspecified) | survival | 52

Source: PubChem BioAssay AID463173
